TEST_DESCRIPTION: S. cerevisiae growth inhibition in restrictive medium, OD615, pilot screen, restrictive growth control, yeast lifespan reduction project (AID 706);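 further: modified DeaD lifespan yeast strain shifted to restrictive glucose medium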
DETAILS: OD615, 48 h, at 10 µM, hits give high values
REPORTED_METRIC: growth inhibition (%)
Your answer should be a plain number; it is taken to be in %.

MOLECULE	RESULT_UNITS	growth inhibition
CCOc1ccc(S(=O)(=O)n2ccnc2)c2ccccc12	%	0.2

Next item in the queue.
Request: Please give the documented growth inhibition of CCC(=O)N1c2ccccc2-c2nnc(SC)nc2OC1c1ccc(OC)c(OC)c1 (stereo unspecified)
Result: -7.5

* * *

TEST_DESCRIPTION: S. cerevisiae growth inhibition in permissive medium (OD615), pilot counter-assay for S. cerevisiae lifespan shortening project, permissive growth control (AID 705)
DETAILS: OD615, 24 h, at 10 µM, hits give high values
REPORTED_METRIC: growth inhibition (%)
Number only, in %; omit the unit.

MOLECULE	RESULT_UNITS	growth inhibition
COc1ccc(N2CCN(C(=O)c3ccc4nc(N5CCCCC5)sc4c3)CC2)cc1	%	9.87
CCN1C(=O)c2ccccc2S(=O)(=O)c2ccc(C(=O)NCc3cccnc3)cc21	%	-2.51
Fc1ccc(-c2nnc3ccc(N4CCCC4)nn23)cc1	%	11.7
CSc1ccc(Cl)c(C(=O)NCc2ccco2)c1	%	-3.93
CCOc1ccc(Cn2nnc(C(=O)Nc3cc(OC)cc(OC)c3)c2N)cc1	%	-2.1
CCc1ccc(N2CC34C=CC(O3)C(C(=O)OC)C4C2=O)cc1 (stereo unspecified)	%	-6.25

Request: Please give the documented growth inhibition of COc1cccc2cc(C(=O)Nc3cccnc3N3CCOCC3)c(=O)oc12
Result: -8.22

Request: Entry CCN1CCN(C(CNC(=O)c2ccc3c(c2)OCO3)c2cccnc2)CC1 (stereo unspecified) needs its growth inhibition filled in; supply it.
Result: -12.5

Request: Give recorded growth inhibition. CCn1cc(C(=O)NC2CCCCC2)c(=O)c2cc(S(=O)(=O)N(C)C)ccc21
Result: -0.125

Request: For the molecule COc1cccc(-n2c(SCC(=O)Nc3cc(C)on3)nc3c([nH]c4ccccc43)c2=O)c1 , give its measured growth inhibition value.
Result: -3.05

Request: Quick one: give measured growth inhibition for CC1CCCCC1NC(=O)Cn1ncc2ccccc21 (stereo unspecified)
Result: -12.1

* * *

Listed here: items and their measured growth inhibition.
TEST_DESCRIPTION: S. cerevisiae growth inhibition in restrictive medium, OD615, pilot screen, restrictive growth control, yeast lifespan reduction project (AID 706);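 further: modified DeaD lifespan yeast strain shifted to restrictive glucose medium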
DETAILS: OD615, 48 h, at 10 µM, hits give high values
Give just the number in %; leave the unit off.

Request: Retrieve growth inhibition measured for COc1ccc(-n2c(SCC(=O)N3CCCC3)nc3c([nH]c4ccccc43)c2=O)cc1 and print it.
Result: -19.5

Request: Please give measured growth inhibition of the following entry: Cn1c(NC(=O)c2ccccc2NC(=O)C(C)(C)C)nc2ccccc21
Result: 8.1

Request: Give recorded growth inhibition. CCOc1ccc2nc(N3CCC(C(=O)N4CCN(C5CCCCC5)CC4)CC3)sc2c1
Result: 8.85

Request: Please give the documented growth inhibition of Clc1ss/c(=N\c2ccccn2)c1Cl
Result: 19.3

Request: Could you please provide reported growth inhibition for CCSc1nnc2c(n1)OC1(CCCC1)Nc1ccccc1-2 ? Thanks!
Result: -3.69

Request: Input O=C(Nc1ccccc1)N1CCN(Cc2ccc3c(c2)OCO3)CC1 , output reported growth inhibition.
Result: -15.8

Request: Kindly indicate its recorded growth inhibition. Item: CCOC(=O)Nc1ccc2c(c1)N(C(=O)N(C)C)c1ccccc1CC2
Result: -0.49

Request: Return the recorded growth inhibition value; entry: Cc1nc2ccc(S(=O)(=O)NC(C(=O)N3CCn4c3nc3ccccc34)C(C)C)cc2s1 (stereo unspecified)
Result: 8.13

* * *

TEST_DESCRIPTION: viability of PTEN-null HCT116 cells – cell-based, HCT116 clonal line, CellTiter-Glo, pilot screen (AID 824);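 further: 0% = 20 µM Hyamine control and 100% = vehicle cell control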
DETAILS: HCT116 PTEN-deleted viability, 60 h, at 10 µM, hits give low values
Results filed as inconclusive are left out.
REPORTED_METRIC: viability (%)
Write the answer as a number in %, unit excluded.

Request: Quickly give me recorded viability for Cc1cc(C)n(-c2ccc(N3CCOCC3)nn2)n1
Result: 101

* * *

Measured inhibition, listed per entry.
TEST_DESCRIPTION: yeast transport mutant growth inhibition pilot in 384-well plates, post-Golgi transport modulator project (AID 636)
DETAILS: absorbance 615 nm, about 18 h, hits give high values
Provide the reading as a plain figure in %.

Worked set:
COMPOUND	RESULT_UNITS	inhibition
Cn1c(=O)c(=O)n(C)c2cc(S(=O)(=O)CCC(=O)N3CCOCC3)ccc21	%	-0.4
Cc1nc2ccccc2c2oc(C(=O)NCC3COc4ccccc4O3)cc12 (stereo unspecified)	%	0.13
CC(=O)NC(CCS(C)(=O)=O)C(=O)Nc1cccc2ccccc12 (stereo unspecified)	%	-1.87
CCN(C(=O)c1cc(Cl)ccc1OC)c1ccccc1	%	1.04
COC(=O)Cn1c(CN2CCOCC2)nc2c1c(=O)n(C)c(=O)n2C	%	-4
CCOc1ccccc1C1C(C(=O)Nc2ccc(OC)cc2)=C(C)Nc2nc(CCCO)nn21 (stereo unspecified)	%	-0.4
CCCCc1cc(=O)oc2cc(OCC(=O)N(CC)CC)c(Cl)cc12	%	-4
CCN(CC)C(=O)Oc1ccc(NC(C)=O)cc1	%	0.91
O=C1CCCCCC1C1(O)C(=O)Nc2ccccc21 (stereo unspecified)	%	-4.68
O=C(O)C1C2C=CC3(CN(C4CCCC4)C(=O)C13)O2 (stereo unspecified)	%	-7.07

Request: Identify inhibition associated with the compound Cc1cc(N=Cc2cc(Br)ccc2O)no1
Result: -3.72

Request: For the compound COc1ccc(S(=O)(=O)Cc2ccc(C(=O)NCCc3ccc(S(N)(=O)=O)cc3)o2)cc1 , give its measured inhibition value.
Result: -4.13

Request: Give recorded inhibition. O=C1c2ccccc2C(Nc2ccc(F)c(Cl)c2)N1Cc1ccco1 (stereo unspecified)
Result: -1.6

Request: Please list inhibition recorded for the compound CCOc1ccc(-c2nnc(SCC(=O)N3CCN(c4ccccc4)CC3)o2)cc1
Result: -3.73

Request: Using known records, supply inhibition for CCCCc1ccc(NC(=O)C2CCCO2)cc1 (stereo unspecified)
Result: -4.87

Request: Hello, please tell me recorded inhibition for this one: Cc1cc2ncc(-c3ccc(Cl)cc3)c(N)n2n1
Result: -4.93

Request: Complete the entry with inhibition for O=C(Nc1ccncc1)C1CCCN(S(=O)(=O)c2cccc3cccnc23)C1 (stereo unspecified)
Result: -7.07

Request: Name the recorded inhibition of the compound listed here: CCOC(=O)Cn1c(CN(C)Cc2ccccc2)nc2c1c(=O)n(C)c(=O)n2C
Result: -7.43

Request: Determine its reported inhibition: Cc1c(C#N)c2ncnc(-c3ccccc3)c2n1-c1ccccc1
Result: -3.64

Request: # return recorded inhibition for entry Cc1cc2cc(CCNC(=O)CC(C)C)c(=O)[nH]c2cc1C
Result: -3.73

Request: Entry CCOc1ccc(-c2nnc3sc(-c4c(OC)cccc4OC)nn23)cc1 needs its inhibition filled in; supply it.
Result: -5.87

* * *

TEST_DESCRIPTION: yeast transport mutant growth inhibition pilot in 384-well plates, post-Golgi transport modulator project (AID 636)
DETAILS: absorbance 615 nm, about 18 h, hits give high values
REPORTED_METRIC: inhibition (%)
Enter your answer as a number in %; do not include the unit.

Sample answers from the record:
MOLECULE	inhibition, %
CC1CCc2nn(CC(=O)NCc3ccc4c(c3)OCO4)cc2C1 (stereo not drawn)	-2.93
CCOC(=O)C1=C(C)NC(=O)NC1c1ccc(Br)s1 (stereo not drawn)	-6.53

Request: Respond only with inhibition recorded for O=C(Nc1cccc(F)c1)C1C2C=CC3(CN(CCCN4CCOCC4)C(=O)C13)O2 (stereo not drawn)
Result: -2.27

Request: Dear colleague, please send me the reported inhibition for Cc1ccc(S(=O)(=O)Cc2ccc(C(=O)N3CCN(Cc4ccccc4)CC3)o2)cc1 when you can.
Result: -0.9

* * *

TEST_DESCRIPTION: S. cerevisiae growth inhibition in permissive medium (OD615), pilot counter-assay for S. cerevisiae lifespan shortening project, permissive growth control (AID 705)
DETAILS: OD615, 24 h, at 10 µM, hits give high values
Tag: t if measured growth inhibition is not below -10%, f if it is.

Examples from the recorded data:
COMPOUND	CATEGORY_LABEL
CC(C)N1C(=O)CCC1C(=O)N1CCN(c2ccccn2)CC1 (stereo unspecified)	f
O=C(O)c1ccc(NS(=O)(=O)c2cc(Cl)ccc2Cl)cc1	f
CCOC(=O)c1ccc2ncc(C(=O)OCC)c(NCCCN3CCOCC3)c2c1	t
COc1ccc(NC(=O)c2cc(C3CC3)on2)c(OC)c1	t
COc1cccc(-c2nnc(NC(=O)c3ccccc3Br)o2)c1	f

Continue with the next compound.
Request: Has COc1ccccc1C1NC(=O)NC(C)=C1C(=O)Nc1cccc(C)c1C (stereo unspecified) a recorded growth inhibition greater than or equal to -10%?
Result: t

Reference source: PubChem BioAssay
